// Weight loss lookup, one value per entry
# Tested on: Mus musculus
# measurement-description: Maximum amount of weight loss in Balb/C mice after 7 days of 60 mg/kg intraperitoneal administration
# Type: functional
quantity: Weight loss (%)

1. CCCCCCCC[C@@]1(C)SC(O)=CC1=O ... 2
2. CCCCCCCC[C@@]1(C)SC(O)=C(C(C)=O)C1=O ... 8.2
3. CC/C=C/C=C/[C@@]1(C)SC(O)=CC1=O ... 3.2
4. C=CCOC(=O)OC1=CC(=O)S[C@]1(C)CCCCCCCC ... 3.4
5. CCCC/C=C/C=C/[C@@]1(C)SC(O)=CC1=O ... 11
6. CCCCCCCC[C@@]1(C)SC(=O)C=C1OC(=O)OCC ... 7.1
7. C=C/C(C)=C/[C@@]1(C)SC(=O)C(C)=C1O (stereo in doubt; form 2) [THIOLACTOMYCIN] ... 2.6
8. CCCCCCCC[C@@]1(C)SC(O)=C(C)C1=O ... 0
9. C=C/C(C)=C/[C@@]1(C)SC(=O)C=C1O ... 7.8
10. C=CCNC(=O)COC1=CC(=O)S[C@]1(C)CCCCCCCC ... 2.4
11. CCCCCC[C@@]1(C)SC(=O)C=C1OCC(=O)NCC(=O)O ... 3.5
12. C[C@]1(Cc2ccccc2)SC(O)=CC1=O ... 1.6

###

Recorded pIC50 for the following molecules
# experimental-system: Fatty acid synthase (Homo sapiens, UniProt P49327)
# Sequence (P49327 whole entry): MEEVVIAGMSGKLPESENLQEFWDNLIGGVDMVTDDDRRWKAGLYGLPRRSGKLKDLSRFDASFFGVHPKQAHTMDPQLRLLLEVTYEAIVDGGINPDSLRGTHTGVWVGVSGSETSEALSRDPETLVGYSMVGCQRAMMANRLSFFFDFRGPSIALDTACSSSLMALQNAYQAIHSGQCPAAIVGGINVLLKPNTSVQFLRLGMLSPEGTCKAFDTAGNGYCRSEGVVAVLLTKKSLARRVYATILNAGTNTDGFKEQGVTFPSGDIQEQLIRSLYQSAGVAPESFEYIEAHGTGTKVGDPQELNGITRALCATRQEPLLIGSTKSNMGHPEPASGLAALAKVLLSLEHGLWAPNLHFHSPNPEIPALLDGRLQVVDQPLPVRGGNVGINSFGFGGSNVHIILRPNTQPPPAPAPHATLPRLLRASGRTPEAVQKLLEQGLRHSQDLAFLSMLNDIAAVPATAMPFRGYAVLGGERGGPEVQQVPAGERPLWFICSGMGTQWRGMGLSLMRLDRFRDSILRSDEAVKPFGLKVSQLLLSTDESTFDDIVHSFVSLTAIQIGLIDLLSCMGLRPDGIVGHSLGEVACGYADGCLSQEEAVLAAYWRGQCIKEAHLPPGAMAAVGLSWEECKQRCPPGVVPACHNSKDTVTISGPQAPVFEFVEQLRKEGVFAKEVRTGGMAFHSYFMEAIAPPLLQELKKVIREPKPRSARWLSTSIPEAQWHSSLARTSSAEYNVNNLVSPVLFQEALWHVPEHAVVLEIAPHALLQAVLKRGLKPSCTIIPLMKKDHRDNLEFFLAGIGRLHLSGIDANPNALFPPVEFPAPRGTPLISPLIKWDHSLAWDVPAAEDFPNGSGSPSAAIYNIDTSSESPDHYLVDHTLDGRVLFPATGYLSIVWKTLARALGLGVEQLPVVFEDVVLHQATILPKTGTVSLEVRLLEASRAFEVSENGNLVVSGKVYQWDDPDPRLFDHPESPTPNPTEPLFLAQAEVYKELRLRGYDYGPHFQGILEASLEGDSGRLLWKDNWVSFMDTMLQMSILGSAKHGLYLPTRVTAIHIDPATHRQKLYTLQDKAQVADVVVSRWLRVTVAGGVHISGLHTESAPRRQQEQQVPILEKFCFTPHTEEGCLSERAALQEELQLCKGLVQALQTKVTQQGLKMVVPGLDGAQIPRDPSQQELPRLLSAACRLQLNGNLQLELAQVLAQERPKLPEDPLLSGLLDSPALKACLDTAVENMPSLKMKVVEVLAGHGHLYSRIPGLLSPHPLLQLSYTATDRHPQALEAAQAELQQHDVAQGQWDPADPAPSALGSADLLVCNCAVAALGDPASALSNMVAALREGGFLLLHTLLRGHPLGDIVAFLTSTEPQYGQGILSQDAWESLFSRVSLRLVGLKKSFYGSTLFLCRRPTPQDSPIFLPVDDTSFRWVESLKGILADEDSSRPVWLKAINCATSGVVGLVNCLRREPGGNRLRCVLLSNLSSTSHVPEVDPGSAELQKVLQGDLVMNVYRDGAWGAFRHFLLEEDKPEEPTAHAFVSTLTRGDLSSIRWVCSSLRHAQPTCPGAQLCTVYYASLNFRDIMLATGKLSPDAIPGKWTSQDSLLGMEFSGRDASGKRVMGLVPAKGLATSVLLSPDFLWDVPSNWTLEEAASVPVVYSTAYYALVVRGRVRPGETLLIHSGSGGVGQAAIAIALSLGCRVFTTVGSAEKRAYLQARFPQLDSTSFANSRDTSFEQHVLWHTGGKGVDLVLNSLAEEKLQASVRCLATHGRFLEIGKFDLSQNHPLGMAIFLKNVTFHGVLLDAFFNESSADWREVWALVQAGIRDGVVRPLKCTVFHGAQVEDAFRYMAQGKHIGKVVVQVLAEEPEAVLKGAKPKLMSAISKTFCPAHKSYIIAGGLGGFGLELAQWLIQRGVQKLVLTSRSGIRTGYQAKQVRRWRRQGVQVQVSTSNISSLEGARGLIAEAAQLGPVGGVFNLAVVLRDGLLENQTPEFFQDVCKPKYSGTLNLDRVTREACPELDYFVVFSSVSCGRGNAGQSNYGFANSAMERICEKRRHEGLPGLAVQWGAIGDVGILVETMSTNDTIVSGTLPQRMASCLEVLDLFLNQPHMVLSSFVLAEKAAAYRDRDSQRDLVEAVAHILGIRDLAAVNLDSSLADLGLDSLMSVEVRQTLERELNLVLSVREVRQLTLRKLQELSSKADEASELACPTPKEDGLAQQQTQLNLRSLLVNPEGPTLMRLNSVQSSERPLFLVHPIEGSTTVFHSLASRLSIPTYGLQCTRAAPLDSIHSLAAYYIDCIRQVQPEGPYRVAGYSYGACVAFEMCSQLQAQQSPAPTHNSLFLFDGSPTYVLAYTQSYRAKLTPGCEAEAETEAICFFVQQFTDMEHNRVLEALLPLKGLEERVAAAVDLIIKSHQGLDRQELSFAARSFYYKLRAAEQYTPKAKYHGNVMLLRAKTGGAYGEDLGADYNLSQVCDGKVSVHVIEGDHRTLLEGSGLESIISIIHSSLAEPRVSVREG
# measurement-description: Inhibitory concentration against purified human fatty acid synthase activity in ZR-75-1 breast cancer cells
pIC50: −log10 of the molar value.
quantity: pIC50

1) CCCCCCCC[C@@]1(C)SC(=O)C(C)=C1OC ... < 3.73
2) CCCCCC[C@@]1(C)SC(=O)C=C1OCC(=O)NCCCBr ... < 3.89
3) CCCCCCCC[C@@]1(C)SC(=O)C=C1OC(=O)CC ... < 3.78
4) CCCCCC[C@@]1(C)SC(=O)C=C1OCCCCCl ... < 3.79
5) CC/C=C/C=C/[C@@]1(C)SC(O)=CC1=O ... < 3.62
6) CCCCCCCC[C@@]1(C)SC(O)=C(C(=O)C(F)(F)F)C1=O ... 3.92
7) C=CCOC(=O)OC1=CC(=O)S[C@]1(C)CCCCCCCC ... 4.68
8) C=C/C(C)=C/[C@@]1(C)SC(=O)C=C1O ... 4.37
9) CCCCCCCC[C@@]1(C)SC(=O)C=C1OCC(=O)O ... < 3.78
10) CCCCCCCC[C@@]1(C)SC(=O)C=C1OCCCCCl ... < 3.82
11) C=CCC1=C(O)S[C@](C)(CCCCCCCC)C1=O ... 5.00
12) CCCCCC[C@@]1(C)SC(=O)C=C1OC ... < 3.66
13) C=CCOC1=C(C)C(=O)S[C@]1(C)CCCCCCCC ... < 3.77
14) C#CCOC1=CC(=O)S[C@]1(C)CCCCCC ... < 3.70
15) COC1=CC(=O)S[C@]1(C)Cc1ccccc1 ... < 3.67

###

# experimental-system: Fatty acid synthase (Homo sapiens, UniProt P49327)
# measurement-description: Inhibitory concentration against purified human fatty acid synthase activity in ZR-75-1 breast cancer cells
quantity: IC50

1. C=CCC1(C)C(=O)S[C@](C)(CCCCCCCC)C1=O (some centres undefined) ... > 169 µM
2. CCCCCC[C@@]1(C)SC(=O)C=C1OCC(=O)NCC(=O)O ... > 152 µM
3. CCCCCCCC[C@@]1(C)SC(O)=C(C)C1=O ... 192 µM
4. CCCCCCCC[C@@]1(C)SC(=O)C=C1OCC(=O)OCC ... > 152 µM
5. C/C=C/C(C)=C/[C@@]1(C)SC(O)=CC1=O ... > 238 µM
6. CCCCCCCC[C@@]1(C)SC(O)=C(C(C)O)C1=O (stereo in doubt; 30) ... 11.5 µM
7. C=C/C(C)=C/[C@@]1(C)SC(=O)C(C)=C1O (stereo in doubt; form 1) [THIOLACTOMYCIN] ... 100 µM
8. C=CCC1(CC=C)C(=O)S[C@](C)(CCCCCCCC)C1=O ... > 155 µM
9. CCCCCC[C@@]1(C)SC(=O)C=C1OCC(=O)OCC ... > 166 µM
10. CCCCCC[C@@]1(C)SC(O)=CC1=O ... > 233 µM
11. CCCCCC[C@@]1(C)SC(=O)C=C1OCC(=O)NCC(=O)OC ... > 146 µM
12. C[C@]1(Cc2ccccc2)SC(O)=CC1=O ... > 227 µM
13. CCCCCCCC[C@@]1(C)SC(=O)C=C1OC ... > 195 µM
14. C=CCOC1=CC(=O)S[C@]1(C)CCCCCCCC ... > 177 µM
15. CCCCCCCC[C@@]1(C)SC(O)=C(C(C)=O)C1=O ... > 176 µM
16. C=CCNC(=O)COC1=CC(=O)S[C@]1(C)CCCCCCCC ... > 147 µM
17. CCCCCCCC[C@@]1(C)SC(O)=C(C(=O)OC)C1=O ... > 166 µM
18. CCCCCCCC[C@@]1(C)SC(O)=CC1=O ... 16.5 µM
19. C=C/C(C)=C/[C@@]1(C)SC(=O)C(C)=C1O (stereo in doubt; form 2) [THIOLACTOMYCIN] ... 143 µM
20. CCCCCCCC[C@@]1(C)SC(O)=C(C(C)O)C1=O (stereo in doubt; 29) ... 19.9 µM
21. CCCC/C=C/C=C/[C@@]1(C)SC(O)=CC1=O ... 36.5 µM
22. C=CCOC1=CC(=O)S[C@]1(C)CCCCCC ... > 197 µM
23. CCCCCCCC[C@@]1(C)SC(=O)C=C1OC(=O)OCC ... 14.6 µM
24. CCCCCCCC[C@@]1(C)SC(=O)C=C1OC(=O)OC ... 6.99 µM

###

# System: MCF7
# measurement-description: Inhibitory concentration against MCF-7 breast cancer cells in XTT assay (non radioactive assay)
# Type: functional, cell-based, Homo sapiens
# experimental-context: Homo sapiens, MCF7; read-out: IC50
Listed next: entries and their corresponding IC50.
quantity: IC50 (µg/mL)

1. C=CCC1=C(O)S[C@](C)(CCCCCCCC)C1=O ... 44.4
2. CCCCCCCC[C@@]1(C)SC(=O)C=C1OCC(=O)OCC ... 35.3
3. CCCCCCCC[C@@]1(C)SC(=O)C=C1OC ... 16.4
4. CCCCCCCC[C@@]1(C)SC(=O)C(C)=C1OC ... 17.3
5. C=CCOC1=C(C)C(=O)S[C@]1(C)CCCCCCCC ... 34.7
6. CCCCCCCC[C@@]1(C)SC(=O)C=C1OC(=O)CC ... 26.8
7. CCCCCCCC[C@@]1(C)SC(=O)C=C1OC(=O)OC ... 21.6
8. CCCCCC[C@@]1(C)SC(=O)C=C1OCCCCCl ... 20.8
9. C=CCOC1=CC(=O)S[C@]1(C)CCCCCCCC ... 14.5
10. CCCCCCCC[C@@]1(C)SC(O)=C(C(C)O)C1=O (stereo in doubt; 29) ... 23.9
11. CCCC/C=C/C=C/[C@@]1(C)SC(O)=CC1=O ... 60
12. CCCCCCCC[C@@]1(C)SC(=O)C=C1OC(=O)OCC ... 15.1
13. C=CCC1(C)C(=O)S[C@](C)(CCCCCCCC)C1=O (some centres undefined) ... 40.5
14. CCCCCC[C@@]1(C)SC(=O)C=C1OC ... 9.4
15. CCCCCC[C@@]1(C)SC(=O)C=C1OCC(=O)NCC(=O)OC ... 40.5
16. C=CCNC(=O)COC1=CC(=O)S[C@]1(C)CCCCCCCC ... 12.1
17. CCCCCCCC[C@@]1(C)SC(O)=C(C(=O)C(F)(F)F)C1=O ... 18.4
18. CCCCCCCC[C@@]1(C)SC(O)=C(C(C)=O)C1=O ... 12.5
19. C=CCC1(CC=C)C(=O)S[C@](C)(CCCCCCCC)C1=O ... 40.5
20. CCCCCC[C@@]1(C)SC(=O)C=C1OCC(=O)OCC ... 39.6
21. CCCCCCCC[C@@]1(C)SC(O)=C(C)C1=O ... 48
22. C=CCOC(=O)OC1=CC(=O)S[C@]1(C)CCCCCCCC ... 37.3
23. CCCCCCCC[C@@]1(C)SC(O)=C(C(=O)OC)C1=O ... 47.2
24. CCCCCCCC[C@@]1(C)SC(O)=CC1=O ... 17.6
25. C#CCOC1=CC(=O)S[C@]1(C)CCCCCC ... 8.9
26. CCCCCCCC[C@@]1(C)SC(=O)C=C1OCCCCCl ... 35.3
27. C=CCOC1=CC(=O)S[C@]1(C)CCCCCC ... 9
28. CCCCCC[C@@]1(C)SC(=O)C=C1OCC(=O)NCCCBr ... 21

Data origin: ChEMBL document CHEMBL1142684
